Molecular target: Free fatty acid receptor 1 (Homo sapiens)
Sequence (O14842 whole entry): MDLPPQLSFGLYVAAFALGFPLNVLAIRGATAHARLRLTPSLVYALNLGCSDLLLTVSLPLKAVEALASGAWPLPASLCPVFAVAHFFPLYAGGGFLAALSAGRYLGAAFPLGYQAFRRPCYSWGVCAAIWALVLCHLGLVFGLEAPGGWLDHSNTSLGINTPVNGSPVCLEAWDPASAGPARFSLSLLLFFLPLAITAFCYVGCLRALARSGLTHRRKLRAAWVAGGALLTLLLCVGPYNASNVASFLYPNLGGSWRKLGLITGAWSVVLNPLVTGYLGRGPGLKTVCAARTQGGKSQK
Assay: Agonist activity at human FFA1 receptor expressed in human U2OS cells co-expressing Galpha16 assessed as calcium mobilization by Fluo-4 dye based FLIPR assay relative to GSK137647A
Assay type: functional, cell-based
recordedMetric: %max (%)
Numbers only, in %.

Use these answered entries as a reference point.
{"columns": ["molecule", "unitLabel", "%max"],
 "data": [
  ["Cc1cc(C)cc(COc2ccc(CCC(=O)O)cc2C)c1", "%", 97],
  ["Cc1cc(CCC(=O)O)ccc1OCc1cccc(Oc2ccccc2)c1", "%", 90]
]}

For every item in the list below, what is its measured %max?
1. Cc1cc(CCC(=O)O)ccc1OCc1ccccc1SC(F)(F)F
2. Cc1cc(CCC(=O)O)ccc1OCc1ccccc1C(F)(F)F
3. Cc1cc(CCC(=O)O)ccc1OCc1cccc(Cl)c1
4. Cc1cc(COc2ccc(CCC(=O)O)cc2C)cc(Oc2ccccc2)c1
5. Cc1cc(OCc2ccccc2SC(F)(F)F)ccc1CCC(=O)O
6. COc1ccc(C(F)(F)F)cc1COc1ccc(CCC(=O)O)cc1C
7. Cc1ccc(OC(C)C)c(COc2ccc(CCC(=O)O)cc2C)c1

1: 81; 2: 95; 3: 60; 4: 85; 5: 108; 6: 105; 7: 154

# map each molecule to its %max
1. CC(CC(=O)O)c1ccc(OCc2ccccc2SC(F)(F)F)cc1 (configuration not stated)
2. Cc1cc(CCC(=O)O)ccc1OCc1ccccc1Cl

[109, 80]

Source: ChEMBL document CHEMBL3994633
